MEASURED TARGET: KRas G12D (Homo sapiens, UniProt P01116, G12D);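 note: TR-FRET displacement binding assay on KRas, read after a one-hour incubation at room temperature, IC50 fitted from percent-of-control values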
Sequence (P01116 1-169 isoform P01116-2 G12D): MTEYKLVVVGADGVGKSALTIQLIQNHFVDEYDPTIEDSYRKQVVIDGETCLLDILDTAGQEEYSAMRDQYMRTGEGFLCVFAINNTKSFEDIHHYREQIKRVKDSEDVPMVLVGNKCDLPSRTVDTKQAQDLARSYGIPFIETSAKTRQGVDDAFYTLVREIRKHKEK
EXPERIMENT DESCRIPTION: biochemical

- MOLECULE: "O=C1CC2(CCCN(c3nc(OCC45CCCN4CCC5)nc4c(F)c(-c5cccc6cccc(CCF)c56)ncc34)C2)N1 (stereo not drawn) [Example 470]"
  IC50: "406 nM"
- MOLECULE: "O=C1C[C@@]2(CCN(c3nc(OCC45CCCN4CCC5)nc4c(F)c(-c5cccc6cccc(F)c56)ncc34)C2)CN1 [Example 280]"
  IC50: "≥ 100000 nM"
- MOLECULE: "O=C1NC(=O)C2(CCCN(c3nc(OC[C@@]45CCCN4C[C@H](F)C5)nc4c(F)c(-c5cc(O)cc6ccc(F)c(Br)c56)ncc34)C2)N1 (stereo partly drawn) [Example 410]"
  IC50: "≤ 2 nM"
- MOLECULE: "CCc1c(F)ccc2cc(O)cc(-c3ncc4c(N5CCN(c6ncccc6C#N)CC5)nc(OC[C@@]56CCCN5C[C@H](F)C6)nc4c3F)c12 [Example 155]"
  IC50: "118 nM"
- MOLECULE: "CC1(O)CCCN(c2nc(OCC34CCCN3CCC4)nc3c(F)c(-c4cc(O)ccc4F)ncc23)C1 (stereo not drawn) [Example 429]"
  IC50: "2460 nM"
- MOLECULE: "O=C1NC(=O)[C@]2(CCCN(c3nc(OC[C@@]45CCCN4C[C@H](F)C5)nc4c(F)c(-c5cc(O)cc6ccc(F)c(Cl)c56)ncc34)C2)N1 [Example 413]"
  IC50: "≤ 2 nM"
